Sequence of the target: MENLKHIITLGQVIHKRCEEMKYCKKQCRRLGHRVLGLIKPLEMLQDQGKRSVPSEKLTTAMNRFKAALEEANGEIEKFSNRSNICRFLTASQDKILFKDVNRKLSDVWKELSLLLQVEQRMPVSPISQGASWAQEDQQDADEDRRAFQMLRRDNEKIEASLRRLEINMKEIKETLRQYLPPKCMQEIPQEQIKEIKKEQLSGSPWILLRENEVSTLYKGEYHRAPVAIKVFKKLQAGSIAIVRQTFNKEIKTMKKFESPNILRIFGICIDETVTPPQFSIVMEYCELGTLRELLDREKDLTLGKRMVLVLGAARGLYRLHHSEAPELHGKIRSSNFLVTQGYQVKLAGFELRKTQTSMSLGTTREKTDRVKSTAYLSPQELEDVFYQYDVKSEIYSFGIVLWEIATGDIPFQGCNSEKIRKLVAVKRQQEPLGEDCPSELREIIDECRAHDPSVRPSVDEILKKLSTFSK
ASSAY_ENDPOINT: pKd
Convention used: pKd is expressed as -log10 of the molar concentration.

[
  {
    "COMPOUND": "Nc1ncc(-c2cnn(C3CN(CC4CCN(C(=O)CNc5cccc6c5C(=O)N(C5CCC(=O)NC5=O)C6=O)CC4)C3)c2)nc1C(=O)OC(C(=O)Nc1ccc(F)cc1)c1ccccc1 (stereo not drawn)",
    "pKd": 7.66
  }
]

Qu. Need pKd, item Nc1ncc(-c2cnn(C3CCN(C(=O)COCCOCCNC(=O)C4CCN(c5cccc6c5C(=O)N(C5CCC(=O)NC5=O)C6=O)CC4)CC3)c2)nc1C(=O)O[C@@H](C(=O)Nc1ccc(F)cc1)c1ccccc1 (stereo partly drawn)
Ans. 8.17

Qu. Lookup Nc1ncc(-c2cnn(C3CCN(CC4CCN(c5cccc6c5C(=O)N(C5CCC(=O)NC5=O)C6=O)CC4)CC3)c2)nc1C(=O)O[C@@H](C(=O)Nc1ccc(F)cc1)c1ccccc1 (stereo partly drawn)
Ans. 7.40

----------
System: FADD−/− Jurkat cells
Assay: Necroptosis inhibition assay, TNF-α-induced necroptosis (CellTiter-Glo 2.0)
Assay type: cell-based, human
Settings: compound 1 μM; TNF-α 15 ng/mL
ASSAY_ENDPOINT: Necroptosis inhibition assay (Rescue %) 1 μM

Example entries and their recorded answers appear below.
[
  {
    "COMPOUND": "Nc1ncc(-c2cnn(C3CCN(CCOCCNc4cccc5c4C(=O)N(C4CCC(=O)NC4=O)C5=O)CC3)c2)nc1C(=O)O[C@@H](C(=O)Nc1ccc(F)cc1)c1ccccc1 (some centres unmarked) [TDH-130]",
    "TESTED_SYSTEM": "FADD−/− Jurkat cells",
    "MEASURED_VALUE": "40.74%"
  },
  {
    "COMPOUND": "Nc1ncc(-c2cnn(C3CCN(C[C@H]4CC[C@H](CNC(=O)COc5cccc6c5C(=O)N(C5CCC(=O)NC5=O)C6=O)CC4)CC3)c2)nc1C(=O)O[C@@H](C(=O)Nc1ccc(F)cc1)c1ccccc1 (some centres unmarked) [TDH-345]",
    "TESTED_SYSTEM": "FADD−/− Jurkat cells",
    "MEASURED_VALUE": "29.41%"
  },
  {
    "COMPOUND": "Nc1ncc(-c2cnn(C3CCN(CCC4CCN(C(=O)CCc5ccc6c(c5)C(=O)N(C5CCC(=O)NC5=O)C6=O)CC4)CC3)c2)nc1C(=O)O[C@@H](C(=O)Nc1ccc(F)cc1)c1ccccc1 (some centres unmarked) [TDH-377]",
    "TESTED_SYSTEM": "FADD−/− Jurkat cells",
    "MEASURED_VALUE": "62.50%"
  },
  {
    "COMPOUND": "Nc1ncc(-c2cnn(C3CCN(CCC4CCN(C(=O)CCc5cccc6c5C(=O)N(C5CCC(=O)NC5=O)C6=O)CC4)CC3)c2)nc1C(=O)O[C@@H](C(=O)Nc1ccc(F)cc1)c1ccccc1 (some centres unmarked) [TDH-376]",
    "TESTED_SYSTEM": "FADD−/− Jurkat cells",
    "MEASURED_VALUE": "76.20%"
  }
]

Qu. Reported Necroptosis inhibition assay (Rescue %) 1 μM for Nc1ncc(-c2cnn(C3CCN(CCCN4CCN(C(=O)C5CCN(c6ccc7c(c6)C(=O)N(C6CCC(=O)NC6=O)C7=O)CC5)CC4)CC3)c2)nc1C(=O)OC(C(=O)Nc1ccc(F)cc1)c1ccccc1 (centres unmarked) [TDH-240] : what is it?
Ans. 43.23%

----------
Target: MLKL (Homo sapiens)
Assay: MLKL degradation assay in HepG2 cell line (western blot)
Format: cell-based
Set-up: endogenous in cells; host or cells: HepG2 or HaCaT
Settings: compound 1 μM; cell line not given
ASSAY_ENDPOINT: Degradation assay (Degradation %) 1 μM
Your answer is read as %, so omit the unit and give the number.

[
  {
    "COMPOUND": "Nc1ncc(-c2cnn(C3CCN(CCOCCOCCNC(=O)CNc4cccc5c4C(=O)N(C4CCC(=O)NC4=O)C5=O)CC3)c2)nc1C(=O)N[C@@H](C(=O)Nc1ccc(F)cc1)c1ccccc1 (stereo partly shown)",
    "Degradation assay (Degradation %) 1 μM": 11.62
  },
  {
    "COMPOUND": "Nc1ncc(-c2cnn(C3CCN(CCC4CCN(C(=O)COc5ccc6nnn(C7CCC(=O)NC7=O)c(=O)c6c5)CC4)CC3)c2)nc1C(=O)O[C@@H](C(=O)Nc1ccc(F)cc1)c1ccccc1 (stereo partly shown)",
    "Degradation assay (Degradation %) 1 μM": 59.64
  },
  {
    "COMPOUND": "Nc1ncc(-c2cnn(C3CCN(C(=O)COC4CCN(C(=O)C5CCN(c6ccc7c(c6)C(=O)N(C6CCC(=O)NC6=O)C7=O)CC5)CC4)CC3)c2)nc1C(=O)O[C@@H](C(=O)Nc1ccc(F)cc1)c1ccccc1 (stereo partly shown)",
    "Degradation assay (Degradation %) 1 μM": 88.25
  }
]

Qu. Suppose we examine the compound Nc1ncc(-c2cnn(C3CCN(CC4CCN(CC(=O)N5CCC(Nc6cccc7c6C(=O)N(C6CCC(=O)NC6=O)C7=O)CC5)CC4)CC3)c2)nc1C(=O)OC(C(=O)Nc1ccc(F)cc1)c1ccccc1 (stereo not shown) ; what Degradation assay (Degradation %) 1 μM value has been reported?
Ans. 30.48

Qu. Repeat with Nc1ncc(-c2cnn(C3CCN(C(=O)c4cn(C5CCN(C(=O)COc6cccc7c6C(=O)N(C6CCC(=O)NC6=O)C7=O)CC5)cn4)CC3)c2)nc1C(=O)O[C@@H](C(=O)Nc1ccc(F)cc1)c1ccccc1 (stereo partly shown)
Ans. 68.16

Qu. Now the same for Nc1ncc(-c2cnn(C3CCN(CCC4CCN(c5ccc6nnn(C7CCC(=O)NC7=O)c(=O)c6c5)CC4)CC3)c2)nc1C(=O)OC(C(=O)Nc1ccc(F)cc1)c1ccccc1 (stereo not shown)
Ans. 70.94

Qu. Now consider Nc1ncc(-c2cnn(C3CCN(CCOC4CCN(C(=O)CCc5cccc6c5CN(C5CCC(=O)NC5=O)C6=O)CC4)CC3)c2)nc1C(=O)O[C@@H](C(=O)Nc1ccc(F)cc1)c1ccccc1 (stereo partly shown) .
Ans. 85.77

Qu. Okay, and Nc1ncc(-c2cnn(C3CCN(CCCCCCNC(=O)COc4cccc5c4C(=O)N(C4CCC(=O)NC4=O)C5=O)CC3)c2)nc1C(=O)O[C@@H](C(=O)Nc1ccc(F)cc1)c1ccccc1 (stereo partly shown) ?
Ans. 53.05

Qu. Nc1ncc(-c2cnn(C3CCN(CCCN4CCN(C(=O)c5cccc(C(=O)NC6CCC(=O)NC6=O)c5)CC4)CC3)c2)nc1C(=O)O[C@@H](C(=O)Nc1ccc(F)cc1)c1ccccc1 (stereo partly shown) , same question.
Ans. 84.12

Qu. Please do the same for Nc1ncc(-c2ccc(N3CCN(CCOCCOCCNC(=O)C4CCN(c5cccc6c5C(=O)N(C5CCC(=O)NC5=O)C6=O)CC4)CC3)nc2)nc1C(=O)OC(C(=O)Nc1ccc(F)cc1)c1ccccc1 (stereo not shown) as well.
Ans. 7.56

----------
Molecular target: MLKL (Homo sapiens, UniProt Q8NB16)
Sequence (Q8NB16 1-471): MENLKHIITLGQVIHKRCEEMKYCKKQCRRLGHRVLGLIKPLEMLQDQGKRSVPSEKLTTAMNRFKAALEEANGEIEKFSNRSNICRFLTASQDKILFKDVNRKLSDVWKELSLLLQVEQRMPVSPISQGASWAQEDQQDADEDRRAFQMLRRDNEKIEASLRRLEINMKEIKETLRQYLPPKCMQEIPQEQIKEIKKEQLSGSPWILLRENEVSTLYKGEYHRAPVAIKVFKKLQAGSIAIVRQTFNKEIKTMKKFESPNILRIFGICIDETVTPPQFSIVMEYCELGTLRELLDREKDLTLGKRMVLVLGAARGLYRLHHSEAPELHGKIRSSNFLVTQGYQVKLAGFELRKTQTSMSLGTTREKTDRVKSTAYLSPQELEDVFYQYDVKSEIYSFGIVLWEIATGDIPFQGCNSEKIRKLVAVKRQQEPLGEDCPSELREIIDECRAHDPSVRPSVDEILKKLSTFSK
Test: MLKL degradation assay in HepG2 cell line (western blot)
Assay type: cell-based
Parameters: endogenous in cells; host or cells: HepG2 or HaCaT
Settings: compound 10 μM; cell line not given
ASSAY_ENDPOINT: Degradation assay (Degradation %) 10 μM
Give your result in % as a bare value.

Study these solved cases before continuing.
[
  {
    "COMPOUND": "Nc1ncc(-c2cnn(C3CCN(CC4CN(c5ccc6c(c5)C(=O)N(C5CCC(=O)NC5=O)C6=O)CCO4)CC3)c2)nc1C(=O)OC(C(=O)Nc1ccc(F)cc1)c1ccccc1 (centres unmarked)",
    "MEASURED_VALUE": 52.38
  },
  {
    "COMPOUND": "Nc1ncc(-c2cnn(C3CCN(CCCCCCNC(=O)COc4cccc5c4C(=O)N(C4CCC(=O)NC4=O)C5=O)CC3)c2)nc1C(=O)O[C@@H](C(=O)Nc1ccc(F)cc1)c1ccccc1 (some centres unmarked)",
    "MEASURED_VALUE": 40.54
  },
  {
    "COMPOUND": "Nc1ncc(-c2cnn(C3CCN(CCOCCOCCOCCNc4ccc5c(c4)C(=O)N(C4CCC(=O)NC4=O)C5=O)CC3)c2)nc1C(=O)O[C@@H](C(=O)Nc1ccc(F)cc1)c1ccccc1 (some centres unmarked)",
    "MEASURED_VALUE": 28.19
  }
]

Qu. Recorded Degradation assay (Degradation %) 10 μM for Nc1ncc(-c2cnn(C3CCN(C(=O)CC4CCN(c5ccc6c(c5)C(=O)N(C5CCC(=O)NC5=O)C6=O)CC4)CC3)c2)nc1C(=O)O[C@@H](C(=O)Nc1ccc(F)cc1)c1ccccc1 (some centres unmarked) with MLKL (Homo sapiens, UniProt Q8NB16), please?
Ans. 47.75

Qu. Now try Nc1ncc(-c2cnn(C3CCN(CC4CN(C(=O)CNc5cccc6c5C(=O)N(C5CCC(=O)NC5=O)C6=O)CCO4)CC3)c2)nc1C(=O)OC(C(=O)Nc1ccc(F)cc1)c1ccccc1 (centres unmarked) .
Ans. 45.31
